# assayedTarget: MAPK7 (Homo sapiens)
# Sequence (Q13164 whole entry): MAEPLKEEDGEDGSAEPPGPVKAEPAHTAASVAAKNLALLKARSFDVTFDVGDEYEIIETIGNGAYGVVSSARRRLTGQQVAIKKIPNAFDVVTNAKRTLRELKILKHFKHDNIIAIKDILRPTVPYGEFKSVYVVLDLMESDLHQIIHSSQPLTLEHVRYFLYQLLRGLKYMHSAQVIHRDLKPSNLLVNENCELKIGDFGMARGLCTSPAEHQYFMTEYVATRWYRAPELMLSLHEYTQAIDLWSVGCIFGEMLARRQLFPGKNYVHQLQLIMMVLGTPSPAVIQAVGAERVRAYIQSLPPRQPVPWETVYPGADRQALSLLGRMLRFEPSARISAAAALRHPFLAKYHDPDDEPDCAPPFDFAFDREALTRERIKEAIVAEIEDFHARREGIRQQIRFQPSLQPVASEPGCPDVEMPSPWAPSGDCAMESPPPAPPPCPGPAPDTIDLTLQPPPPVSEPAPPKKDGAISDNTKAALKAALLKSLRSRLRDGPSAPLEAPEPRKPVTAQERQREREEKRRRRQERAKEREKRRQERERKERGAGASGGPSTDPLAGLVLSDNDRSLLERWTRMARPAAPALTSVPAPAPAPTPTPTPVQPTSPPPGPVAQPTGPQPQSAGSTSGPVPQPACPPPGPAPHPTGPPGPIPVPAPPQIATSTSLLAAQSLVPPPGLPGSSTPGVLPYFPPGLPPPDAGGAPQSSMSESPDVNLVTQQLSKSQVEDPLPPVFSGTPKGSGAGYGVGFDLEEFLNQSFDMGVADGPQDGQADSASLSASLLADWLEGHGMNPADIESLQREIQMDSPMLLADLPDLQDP
# experimentalDetails: MAPK7 Western blot protein degradation assay in U-87 MG cells
# Format: cell-based
# Design: U-87 MG human glioblastoma cells, which express MAPK7; endogenous in cells; host or cells: U-87 MG
# assayConditions: 48 hr, 100 nM
measurementLabel: MAPK7 degradation (100 nM)

INSERT INTO results (structuresmiles, assayedtarget, measurementlabel, recordedmeasurement) VALUES
  ('CCOc1cc(N2CCC(C(=O)N3CCC(CN4CCN(Cc5ccc(-n6c(O)nnc6-c6ccc(O)cc6O)cc5)CC4)CC3)CC2)ccc1Nc1ncc2c(n1)N(C)c1ccccc1C(=O)N2C', 'MAPK7 (Homo sapiens)', 'MAPK7 degradation (100 nM)', 'C (< 33% degradation)'),
  ('CCOc1cc(N2CCC(C(=O)N3CCC(CN4CCN(Cc5ccc(-n6c(C(=O)NCC(F)(F)F)nnc6-c6cc(C)c(O)cc6O)cc5)CC4)CC3)CC2)ccc1Nc1ncc2c(n1)N(C)c1ccccc1C(=O)N2C', 'MAPK7 (Homo sapiens)', 'MAPK7 degradation (100 nM)', 'C (< 33% degradation)');

----------
Please go through the items and note down their pIC50.
# assayedTarget: HSP90α protein (Homo sapiens, UniProt P07900)
# Construct: purchased BPS Bioscience #50298
# experimentalDetails: HSP90α-binding FP (BODIPY) assay
# assayConditions: FP competition with BODIPY-labeled RNK04010
pIC50: −log10 of the molar value.

Given the molecule `CCOc1cc(N2CCC(C(=O)N3CCC(CN4CCN(Cc5ccc(-n6c(C(=O)NC(CC)CC)nnc6-c6cc(CC)c(O)cc6O)cc5)CC4)CC3)CC2)ccc1Nc1ncc2c(n1)N(S(C)(=O)=O)c1ccccc1C(=O)N2C` , what is its reported pIC50?
6.00 to 7.00

Given the molecule `CCOc1cc(N2CCC(C(=O)N3CCC(CN4CCN(Cc5ccc(-n6c(O)nnc6-c6cc(C(C)C)c(O)cc6O)cc5)CC4)CC3)CC2)ccc1N(CC)c1ncc2c(n1)N(S(C)(=O)=O)c1ccccc1C(=O)N2C` , what is its reported pIC50?
> 7.00

Given the molecule `CCOc1cc(N2CCC(C(=O)N3CCC(Cc4ccc(CN(C)Cc5ccc(-n6c(C(=O)NCC(F)(F)F)nnc6-c6cc(C(C)C)c(O)cc6O)cc5)cc4)CC3)CC2)ccc1Nc1ncc2c(n1)N(S(C)(=O)=O)c1ccccc1C(=O)N2C` , what is its reported pIC50?
< 6.00

Given the molecule `CCOc1cc(N2CCC(C(=O)N3CCC(COc4ccc(Nc5cc(-n6nc(C(F)(F)F)c7c6CC(C)(C)CC7=O)ccc5C(N)=O)cc4)CC3)CC2)ccc1Nc1ncc2c(n1)N(S(C)(=O)=O)c1ccccc1C(=O)N2C` , what is its reported pIC50?
< 6.00

----------
# assayedTarget: HSP90α protein (Homo sapiens, UniProt P07900)
# Construct: purchased BPS Bioscience #50298
# experimentalDetails: HSP90α-binding FP (BODIPY) assay
# assayConditions: FP competition with BODIPY-labeled RNK04010
# Description: Binding of test compounds to HSP90α protein was measured by fluorescent polarization (FP) using the HSP90α (N-terminal) Assay Kit (BPS Bioscience, #50298), following the manufacturer's instructions, except as noted. […] After the final step of adding HSP90α protein to each assay well, plates were mixed by brief shaking, incubated at 25° C. for 120 min for FITC-geldanamycin or 300 min for RNK04010, and fluorescence was measured using a PerkinElmer EnVision Plate Reader.
pIC50: −log10 of the molar value.
Please go through the items and note down their pIC50.

Given the compound CCOc1cc(N2CCC(C(=O)NCCOCCNC(=O)O[C@H]3CC[C@H](Nc4cc(-n5nc(C(F)(F)F)c6c5CC(C)(C)CC6=O)ccc4C(N)=O)CC3)CC2)ccc1Nc1ncc2c(n1)N(C)c1ccccc1C(=O)N2C [Compound 103] , what is its reported pIC50?
< 6.00

Given the compound CCOc1cc(N2CCC(C(=O)N3CCC(CN4CCN(Cc5ccc(-n6c(C(=O)NC(C)C)nnc6-c6cc(CC)c(O)cc6O)cc5)CC4)CC3)CC2)ccc1Nc1ncc2c(n1)N(S(C)(=O)=O)c1ccccc1C(=O)N2C [Compound 098] , what is its reported pIC50?
> 7.00

Given the compound CCOc1cc(N2CCC(C(=O)N3CCN(c4ccc(-n5c(O)nnc5-c5cc(C(C)C)c(O)cc5O)cc4)CC3)CC2)ccc1Nc1ncc2c(n1)N(C)c1ccccc1C(=O)N2C [Compound 023] , what is its reported pIC50?
6.00 to 7.00

Given the compound CCOc1cc(N2CCC(C(=O)NCCOCCOc3ccc(Nc4ccc(-n5nc(C(F)(F)F)c6c5CC(C)(C)CC6=O)cc4C(N)=O)cc3)CC2)ccc1Nc1ncc2c(n1)N(C)c1ccccc1C(=O)N2C [Compound 065] , what is its reported pIC50?
< 6.00

Given the compound CCOc1cc(N2CCC(C(=O)NCCc3ccc(CN4CCC(Cc5ccc(-n6c(C(=O)NCC(F)(F)F)nnc6-c6cc(C(C)C)c(O)cc6O)cc5)CC4)cc3)CC2)ccc1Nc1ncc2c(n1)N(C)c1ccccc1C(=O)N2C [Compound 035] , what is its reported pIC50?
6.00 to 7.00

Given the compound CCCc1cc(-c2nnc(O)n2-c2ccc(CN3CCN(C(=O)C4CCN(c5ccc(Nc6ncc7c(n6)N(S(C)(=O)=O)c6ccccc6C(=O)N7C)c(OCC)c5)CC4)CC3)cc2)c(O)cc1O [Compound 087] , what is its reported pIC50?
6.00 to 7.00

Given the compound CCOc1cc(N2CCC(C(=O)N3CCN(Cc4ccc(-n5c(O)nnc5-c5cc(C(C)C)c(O)cc5O)cc4)[C@H](C)C3)CC2)ccc1Nc1ncc2c(n1)N(C)c1ccccc1C(=O)N2C [Compound 051] , what is its reported pIC50?
6.00 to 7.00

Given the compound CCOc1cc(N2CCC(C(=O)N3CCC(CN4CCC(COc5ccc(Nc6cc(-n7nc(C(F)(F)F)c8c7CC(C)(C)CC8=O)ccc6C(N)=O)cc5)CC4)CC3)CC2)ccc1Nc1ncc2c(n1)N(S(C)(=O)=O)c1ccccc1C(=O)N2C [Compound 137] , what is its reported pIC50?
< 6.00

Given the compound CCOc1cc(N2CCC(C(=O)N3CCN(Cc4ccc(-n5c(O)nnc5-c5cc(C)c(O)cc5O)cc4)CC3)CC2)ccc1Nc1ncc2c(n1)N(S(C)(=O)=O)c1ccccc1C(=O)N2C [Compound 085] , what is its reported pIC50?
6.00 to 7.00
